tested on: full thickness wound (2 x 2 cm); assay: Wound healing (wound contraction and re-epithelialization) after topical hydrogel application to a full thickness skin wound in rats; assay type: in vivo, Male Wistar rats; details: versus control hydrogel, from wound area at day 8
The entries below are paired with their reported % Wound reduction vs control.
Quantity Name: % Wound reduction vs control

{"Molecule": "O=[N+]([O-])O[C@@H]1CO[C@H]2[C@@H]1OC[C@@H]2SS[C@H]1CO[C@H]2[C@@H]1OC[C@H]2O[N+](=O)[O-] [Compound 3, 5'5'-dinitrato-2,2'ditioisosorbide]", "Observed Value": "51%"}
{"Molecule": "CC(=O)S[C@H]1CO[C@H]2[C@@H]1OC[C@H]2O[N+](=O)[O-] [Compound 1, 2-acetylthioisosorbide 5-mononitrate]", "Observed Value": "66%"}
{"Molecule": "CCC[S+]([O-])[C@H]1CO[C@H]2[C@@H]1OC[C@H]2O[N+](=O)[O-] (stereo partly drawn)", "Observed Value": "69%"}
{"Molecule": "CS(=O)(=O)[C@H]1CO[C@H]2[C@@H]1OC[C@H]2O[N+](=O)[O-] [Compound 5, 2-Methylsulfonylisosorbide 5-mononitrate]", "Observed Value": "51%"}
{"Molecule": "CS[C@H]1CO[C@H]2[C@@H]1OC[C@H]2O[N+](=O)[O-] [Compound 4, 2-Methylthioisosorbide 5-mononitrate]", "Observed Value": "69%"}
{"Molecule": "CC(=O)S[C@@H]1CO[C@H]2[C@@H]1OC[C@H]2O[N+](=O)[O-] [Compound 2, 2-acetylthioisomanide 5-mononitrate]", "Observed Value": "60%"}

Origin of values: patent EP2177216A1
